Where do these numbers come from? They come from the supplement of paper PMC13380429.

# System: A549-ACE2 infected with SARS-CoV-2
# ASSAY TEXT: morphology score (similarity to uninfected cells); higher = more like uninfected cells
# CONDITION PARAMETERS: 0.3 µM; 24 h
Provide the recorded morphology score for the entries that follow.
One number for each entry.

Worked set:
Readout morphology score for "CCN(CC)CCCCNc1ncc2cc(-c3cc(OC)cc(OC)c3)c(NC(=O)NC(C)(C)C)nc2n1" , test system A549-ACE2 infected with SARS-CoV-2, was -0.12

morphology score value, target or system A549-ACE2 infected with SARS-CoV-2, for "O=c1oc(-c2ccc(C(F)(F)F)cc2)nn1Cc1cc(Cl)ccc1O" : 0.38

Kindly note: A549-ACE2 infected with SARS-CoV-2, "CC(C)n1cnc2c(NCCc3ccc(O)cc3)nc(-c3csc4ccccc34)nc21" , morphology score value reported: 0.34

Please give morphology score for each item listed below.
1. Cc1c(O)cccc1C(=O)N[C@@H](CSc1ccccc1)[C@H](O)CN1C[C@H]2CCCC[C@H]2C[C@H]1C(=O)NC(C)(C)C
2. CCCCCCCCNC(=O)/C(C#N)=C/c1cn(CCCN(C)C)c2ccccc12

Ans.
1. 0.27
2. -0.05

---

# Tested on: U2OS
# ASSAY TEXT: cell viability relative to DMSO; higher = less toxic
# CONDITION PARAMETERS: 72 h; 1000 nM
TEST READOUT: cell viability

Examples with answers:
Noted for "Nc1ncnc2c1ncn2[C@@H]1O[C@H](C[C@@H](N)CC[C@H](N)C(=O)O)[C@@H](O)[C@H]1O" : its cell viability reads 101%

The molecule listed as "O=c1[nH]cnc2c([C@@H]3N[C@H](CO)[C@@H](O)[C@H]3O)c[nH]c12" has a reported cell viability of 103%

molecule "COc1ccc(C(=O)Nc2c(Cl)cncc2Cl)cc1OC1CCCC1" , cell viability observed: 98.3%

# input for lookup
Data point: "Cc1cc(NC(=O)Nc2ccc(F)c(F)c2)n(-c2ccccc2)n1" ; cell viability = 103%

---

For each of the molecules below, state its cell viability.
# Tested on: Calu-3
# ASSAY TEXT: cell viability relative to DMSO; higher = less toxic
# CONDITION PARAMETERS: 72 h; 1000 nM
Reply with a number, then the unit it belongs to.

In the examples that follow, each entry is paired with its recorded cell viability.
Reported cell viability for "N=C(N)S/C=C\C(=O)O" was 103%

The molecule identified as "CC/C(=C(\c1ccccc1)c1ccc(OCCN(C)C)cc1)c1ccccc1" registered its cell viability at 86%

Reported cell viability for "O=C(O)[C@H]1CC[C@H](c2cc3cccnc3c(-c3cccc(F)c3)n2)CC1" was 95%

Query "Cc1cc(Cl)ccc1OCCCC(=O)NO" yields cell viability of 97.6%

The recorded cell viability for "C#Cc1cccc(Nc2ncnc3cc(OCCOC)c(OCCO)cc23)c1" is 48.6%

Moving on to the next molecule.
For this molecule ( "C[C@H](N)Cn1ccc2cc(F)c(Cl)cc21" ), measured cell viability is 95.6%

---

Provide the reported cell viability of each item.
# Tested on: U2OS
# ASSAY TEXT: cell viability relative to DMSO; higher = less toxic
# CONDITION PARAMETERS: 72 h; 1000 nM
Numbers only, in %.

Some compounds with recorded cell viability:
The compound N#C/C(=C\c1ccc(O)c(O)c1)C(=O)Nc1ccccc1 [tyrphostin-AG-494] showed cell viability equal to 97.3

The compound identified as CCc1c(C(=O)Nc2cc(S(=O)(=O)N(CC)CC)ccc2O)[nH]c(C)c1C(C)=O [XD-14] registered its cell viability at 100

Dear reader, for each entry below, please note its cell viability.
1. CN(C)CCOC(=O)COc1ccc(Cl)cc1 [meclofenoxate]
2. CN(C[C@@H]1COCCO1)S(=O)(=O)Nc1ccc2ccc3ncc(-c4cnn(C)c4)cc3c(=O)c2c1 [MK-2461]
3. Fc1ccc(CN2CCC(Nc3ccc(C(F)(F)F)nn3)CC2)cc1F
4. CC12CCC(C(Br)C1=O)C2(C)C (stereo not drawn) [3-bromocamphor]
5. CC(C)=CCC/C(C)=C/CC/C(C)=C/CCC(=O)OC/C=C(\C)CCC=C(C)C [geranyl-farnesylacetate]
6. Cc1ccc2c(Br)cc(Br)c(OC(=O)c3ccccc3)c2n1 [broxaldine]
7. O=[N+]([O-])/C=C/c1ccc2c(c1)OCO2 [3,4-methylenedioxy-beta-nitrostyrene]
8. CCc1c(O)cc(O)c(C(=O)c2ccc(OCCN3CCOCC3)c(OC)c2)c1CC(=O)N(CCOC)CCOC [KW-2478]

Ans.
98.3
96.9
102
97.1
96.7
92.7
100
98.3

---

# System: A549-ACE2
# ASSAY TEXT: drug-induced phospholipidosis relative to tamoxifen; higher = more phospholipidosis
# CONDITION PARAMETERS: 6.66667 µM; 24 h
Param threshold (40%) applies to drug-induced phospholipidosis; output YES when value >= threshold, NO when value < threshold.

Below are worked cases with known answers.
Qu. Does the reported drug-induced phospholipidosis for CC(C)n1cnc2c(NCCc3ccc(O)cc3)nc(-c3csc4ccccc34)nc21 [stemregenin-1] fall at or above the 40% mark?
Ans. NO

Qu. Kindly determine if drug-induced phospholipidosis recorded for "Nc1ccc(C(=O)Nc2cccc(-c3nc(N4CCOCC4)c4oc5ncccc5c4n3)c2)cn1" is above or exactly 40%.
Ans. YES

Next:
Qu. Confirm if drug-induced phospholipidosis reported for the compound Cn1c(NC[C@@H](N)Cc2ccccc2)nc(-c2ccncc2)c(-c2ccc3ccccc3c2)c1=O [AMG-548] is 40% or above.
Ans. YES

Qu. Identify whether the reported drug-induced phospholipidosis of the following compound is 40% or greater: "CCN(CC)CCCCNc1ncc2cc(-c3cc(OC)cc(OC)c3)c(NC(=O)NC(C)(C)C)nc2n1"
Ans. YES

Qu. For this compound, is measured drug-induced phospholipidosis 40% or higher? O=[N+]([O-])/C=C/c1ccc2c(c1)OCO2 [3,4-methylenedioxy-beta-nitrostyrene]
Ans. NO

Qu. Quick check, drug-induced phospholipidosis >= 40%? Cc1cc(Nc2ncc(Cl)c(Nc3ccccc3S(=O)(=O)C(C)C)n2)c(OC(C)C)cc1C1CCNCC1 [ceritinib]
Ans. YES

Qu. Entry CN(C)CCCCC(=O)Nc1ccc(NC(=S)NC(=O)c2ccc(C(C)(C)C)cc2)cc1 [tenovin-6] : is its drug-induced phospholipidosis no less than 40%?
Ans. YES

Qu. Reported drug-induced phospholipidosis reaches at least 40% for CNC(=O)c1cc(Oc2ccc(NC(=O)Nc3ccc(Cl)c(C(F)(F)F)c3)cc2)ccn1 [sorafenib] ?
Ans. NO

Qu. Has Cc1[nH]cnc1-c1ccc(Cl)cc1 [lofemizole] a recorded drug-induced phospholipidosis greater than or equal to 40%?
Ans. NO

---

I'd be grateful if you could share measured relative viability EC50 for these entries.
# System: Vero E6
# ASSAY TEXT: relative viability EC50 (midpoint between 100% and the lowest measured viability); higher = less toxic
# CONDITION PARAMETERS: 72 h

// below: answered molecules
relative viability EC50 measured on "Cc1cc(OCc2nnc(SC3CCCC3)n2-c2cccnc2)ccc1-c1ccc(S(C)(=O)=O)cc1" = 2.19 µM

GET /value?item= "COC(=O)C1=C(C)NC(C)=C(C(=O)OCCSc2ccccc2)[C@@H]1C" &field=relative viability EC50 returns > 10 µM

Entry under test: "OCc1c[nH]c2ccccc12" . Its relative viability EC50 was > 10 µM

# molecule "Cc1csc(-c2nnc(Nc3ccc(Oc4ncccc4-c4ccnc(N)n4)cc3)c3ccccc23)c1" ; its relative viability EC50 = > 10 µM

Now, please, on to the next molecule.
The measured relative viability EC50 associated with "CC(C)(C)CC(C)(C)c1cc(Cc2cc(C(C)(C)CC(C)(C)C)cc(-n3nc4ccccc4n3)c2O)c(O)c(-n2nc3ccccc3n2)c1" reads > 10 µM

---

# Test system: Vero E6
# ASSAY TEXT: drug sensitivity score (DSS) for viability; higher = more toxic; extreme values may be limits of the assay
# CONDITION PARAMETERS: 72 h
Exercise: state measured drug sensitivity score for each of the compounds provided.
Numbers only.

Data point: CC(=O)NC1CCSC1=O (stereo unspecified) [citiolone] ; drug sensitivity score = 0

// drug sensitivity score lookup, compound = O=[N+]([O-])/C=C/c1ccc2c(c1)OCO2 [3,4-methylenedioxy-beta-nitrostyrene] , result: 0.6

Data point: O=C(NCCCN1CCOCC1)c1ccc(Cl)cc1 [eprobemide] ; drug sensitivity score = 0

Briefly, drug sensitivity score measured for CC(C(=O)O)c1ccc(C(=O)c2cccs2)cc1 (stereo unspecified) [suprofen] : 0

// sample c1ccc2c(c1)CCC[C@H]2Nc1nc2ccccc2[nH]1 [NS-8593] , its drug sensitivity score was 0

State the recorded drug sensitivity score for every item in the following list.
1. CN1CCN(C(=O)CN[C@@H]2C[C@H]2c2ccc(OCc3ccccc3)cc2)CC1 [RN-1]
2. Cc1nc2ccc(-n3ncc(C(=O)c4cc5ccccc5[nH]4)c3N)cc2[nH]1
3. N#Cc1cc2nc(O)c(O)nc2cc1[N+](=O)[O-] [CNQX]
4. CC(C)(C)NCC(O)c1cc(Cl)c(N)c(Cl)c1 (stereo unspecified) [clenbuterol]

Ans.
1. 0.1
2. 2.2
3. 0
4. 0
